- assay target: human Y4 receptor (Homo sapiens)
- Construct: expressed in transfected cells
- assay name: NPY4 cAMP HTRF Agonist Assay (inhibitory cAMP assay, Gi activation by Y4 agonism)
- Format: cell-based
- details: TABLE 4, R2 is Pyridinyl-CN; read-out: hY4 CAMP EC50
# Lookup of reported EC50 keyed by entry

| compound | EC50 / nM |
| --- | --- |
| N#Cc1cc(N2C[C@@H]3C[C@H](N[C@@H]4CCCC[C@H]4Nc4ncc(-c5ccc(OC(F)(F)F)cc5)o4)[C@H]2C3)ccn1 [Example 310] | 124 |
| C[C@]1(N[C@@H]2CCCC[C@H]2Nc2ncc(-c3cccc(C(N)=O)c3)o2)CCCN(c2ccc(C#N)cn2)C1 [Example 298] | 23 |
| CC(O)c1cccc(-c2ccnc(N[C@@H]3CCCC[C@H]3NC3CCCN(c4ccc(C#N)nc4)C3)c2)c1 (stereo partly drawn) [Example 313] | 68 |
| N#Cc1cc(N2CCC[C@H](N[C@@H]3CCCC[C@H]3Nc3ncc(-c4ccc(OC(F)(F)F)cc4)o3)C2)ccn1 [Example 307] | 7 |
| N#Cc1ccc(N2C[C@@H]3C[C@H](N[C@@H]4CCCC[C@H]4Nc4ncc(-c5cccc(C(N)=O)c5)o4)[C@H]2C3)cn1 [Example 303] | 221 |
| N#Cc1ccc(N2C[C@@H]3C[C@H](N[C@@H]4CCCC[C@H]4Nc4cc(-c5cccc(C(N)=O)c5)ccn4)[C@H]2C3)cn1 [Example 302] | 1210 |

----------
- assay target: human Y4 receptor (Homo sapiens)
- Construct: expressed in transfected cells
- assay name: NPY4 cAMP HTRF Agonist Assay (inhibitory cAMP assay, Gi activation by Y4 agonism)
- Type: cell-based
- details: TABLE 7, R2 is Pyridinyl-oxadiazole-CH3; read-out: hY4 CAMP EC50
test readout: log10(EC50) (log10 of the value in nM)

| line notation | log10(EC50) |
| --- | --- |
| Cc1nc(-c2ccc(N3CCC[C@H](N[C@@H]4CCCC[C@H]4Nc4cc(-c5cccc(C(N)=O)c5)ccn4)C3)nc2)no1 | 0.00 |
| Cc1nc(-c2ccc(N3CCC[C@H](N[C@@H]4CCCC[C@H]4Nc4ncc(-c5ccc(OC(F)(F)F)cc5)o4)C3)cn2)no1 | 2.63 |
| Cc1nc(-c2ccc(N3CCC[C@](C)(N[C@@H]4CCCC[C@H]4Nc4ncc(-c5cccc(C(N)=O)c5)o4)C3)cn2)no1 | 1.11 |
| Cc1nc(-c2ccc(N3CCC[C@H](N[C@@H]4CCCC[C@H]4Nc4ncc(-c5cccc(C(=O)NCC(C)C)c5)o4)C3)cn2)no1 | 2.39 |
| Cc1nc(-c2ccc(N3CCC[C@H](N[C@@H]4CCCC[C@H]4Nc4ncc(-c5cccc(C(=O)O)c5)o4)C3)cn2)no1 | 2.78 |
| Cc1nc(-c2ccc(N3CCC[C@H](N[C@@H]4CCCC[C@H]4Nc4nccc(-c5ccccc5)n4)C3)cn2)no1 | 0.70 |
| Cc1nc(-c2ncc(N3CCC[C@H](N[C@@H]4CCCC[C@H]4Nc4ncc(-c5cccc(C(N)=O)c5)o4)C3)cn2)no1 | 0.48 |
| COC(=O)Nc1cccc(-c2cnc(N[C@@H]3CCCC[C@H]3N[C@H]3CCCN(c4ccc(-c5noc(C)n5)nc4)C3)o2)c1 | 0.00 |
| Cc1nc(-c2ccc(N3CCC[C@H](N[C@@H]4CCCC[C@H]4Nc4ncc(-c5cccc(C(N)=O)c5)o4)C3)cn2)no1 | 0.48 |
| Cc1nc(-c2ccc(N3CCC[C@H](N[C@@H]4CCCC[C@H]4Nc4ncc(-c5ccc(OC(F)(F)F)cc5)o4)C3)nc2)no1 | 2.29 |
| CNC(=O)c1cccc(-c2cnc(N[C@@H]3CCCC[C@H]3N[C@H]3CCCN(c4ccc(-c5noc(C)n5)nc4)C3)o2)c1 | 0.95 |
| Cc1nc(-c2ccc(N3CCC[C@H](N[C@@H]4CCCC[C@H]4Nc4nccc(-c5ccccc5)n4)C3)nc2)no1 | 0.30 |
| Cc1nc(-c2ccc(N3CCC[C@](C)(N[C@@H]4CCCC[C@H]4Nc4cc(-c5cccc(C(N)=O)c5)ccn4)C3)cn2)no1 | 0.70 |
| COC(=O)c1cccc(-c2cnc(N[C@@H]3CCCC[C@H]3N[C@H]3CCCN(c4ccc(-c5noc(C)n5)nc4)C3)o2)c1 | 1.15 |
| Cc1nc(-c2ccc(N3CCC[C@H](N[C@@H]4CCCC[C@H]4Nc4ncc(-c5cccc(C(N)=O)c5)o4)C3)nc2)no1 | -0.70 |
| Cc1nc(-c2ccc(N3CCC[C@H](N[C@@H]4CCCC[C@H]4Nc4ncc(-c5cccc(C(=O)NC6CC6)c5)o4)C3)cn2)no1 | 1.89 |

----------
- assay target: human Y4 receptor (Homo sapiens, UniProt P50391)
- Construct: expressed in transfected cells
- Sequence (P50391 whole entry): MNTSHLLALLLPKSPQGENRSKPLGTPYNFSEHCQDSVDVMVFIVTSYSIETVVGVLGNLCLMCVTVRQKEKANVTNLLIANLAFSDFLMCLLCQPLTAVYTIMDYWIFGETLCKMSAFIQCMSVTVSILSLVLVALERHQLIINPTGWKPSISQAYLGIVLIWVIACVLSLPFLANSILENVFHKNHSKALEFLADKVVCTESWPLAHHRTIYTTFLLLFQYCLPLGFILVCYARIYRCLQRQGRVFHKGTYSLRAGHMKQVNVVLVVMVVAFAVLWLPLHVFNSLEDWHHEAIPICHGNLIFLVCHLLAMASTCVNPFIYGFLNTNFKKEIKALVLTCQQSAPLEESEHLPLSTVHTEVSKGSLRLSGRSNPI
- assay name: NPY4 cAMP HTRF Agonist Assay (inhibitory cAMP assay, Gi activation by Y4 agonism)
- Assay type: cell-based
- details: second TABLE 1, R2 is Phenyl-CF3; read-out: hY4 CAMP EC50
Criterion: EC50 strictly under 100 nM. Met: Criterion met. Not met: Criterion not met.

| compound | assay target | cat |
| --- | --- | --- |
| CNC(=O)Cc1cccc(-c2ccnc(N[C@@H]3CCCC[C@H]3N[C@H]3CCCN(c4ccc(C(F)(F)F)cc4)C3)c2)c1 [Example 175] | human Y4 receptor (Homo sapiens, UniProt P50391) | Criterion met |
| OCCCCCc1ccnc(N[C@@H]2CCCC[C@H]2N[C@H]2CCCN(c3ccc(C(F)(F)F)cc3)C2)c1 [Example 186] | human Y4 receptor (Homo sapiens, UniProt P50391) | Criterion not met |
| CCOC(=O)Nc1cccc(-c2ccnc(N[C@@H]3CCCC[C@H]3N[C@H]3CCCN(c4ccc(C(F)(F)F)cc4)C3)c2)c1 [Example 136] | human Y4 receptor (Homo sapiens, UniProt P50391) | Criterion met |
| FC(F)(F)c1ccc(N2CCC[C@H](N[C@@H]3CCCC[C@H]3Nc3ncc(-c4cccc(-c5nnn[nH]5)c4)o3)C2)cc1 [Example 122] | human Y4 receptor (Homo sapiens, UniProt P50391) | Criterion not met |
| CC(C)NCc1cccc(-c2ccnc(N[C@@H]3CCCC[C@H]3N[C@H]3CCCN(c4ccc(C(F)(F)F)cc4)C3)c2)c1 [Example 143] | human Y4 receptor (Homo sapiens, UniProt P50391) | Criterion not met |
| C[C@]1(N[C@@H]2CCCC[C@H]2Nc2cc(-c3cccc(C(N)=O)c3)ccn2)CCCN(c2ccc(C(F)(F)F)cc2)C1 [Example 120] | human Y4 receptor (Homo sapiens, UniProt P50391) | Criterion met |
| CNC(=O)c1cccc(-c2ccnc(N[C@@H]3CCCC[C@H]3N[C@H]3CCCN(c4ccc(C(F)(F)F)cc4)C3)c2)c1 [Example 130] | human Y4 receptor (Homo sapiens, UniProt P50391) | Criterion met |
| N#Cc1ccnc(N[C@@H]2CCCC[C@H]2N[C@H]2CCCN(c3ccc(C(F)(F)F)cc3)C2)n1 [Example 194] | human Y4 receptor (Homo sapiens, UniProt P50391) | Criterion not met |
| FC(F)(F)c1ccc(N2CCC[C@H](N[C@@H]3CCCC[C@H]3Nc3cc(-c4cccc(-n5cccn5)c4)ccn3)C2)cc1 [Example 158] | human Y4 receptor (Homo sapiens, UniProt P50391) | Criterion met |
| FC(F)(F)c1ccc(N2CCC[C@H](N[C@@H]3CCCC[C@H]3Nc3cc(-n4cccc4)ccn3)C2)cc1 [Example 190] | human Y4 receptor (Homo sapiens, UniProt P50391) | Criterion met |
| CC(C)(O)c1cccc(-c2ccnc(N[C@@H]3CCCC[C@H]3N[C@H]3CCCN(c4ccc(C(F)(F)F)cc4)C3)c2)c1 [Example 126] | human Y4 receptor (Homo sapiens, UniProt P50391) | Criterion met |
| C[C@@H](O)c1cccc(-c2ccnc(N[C@@H]3CCCC[C@H]3N[C@H]3CCCN(c4ccc(C(F)(F)F)cc4)C3)c2)c1 [Example 168] | human Y4 receptor (Homo sapiens, UniProt P50391) | Criterion met |
| CCCC#Cc1ccnc(N[C@@H]2CCCC[C@H]2N[C@H]2CCCN(c3ccc(C(F)(F)F)cc3)C2)c1 [Example 185] | human Y4 receptor (Homo sapiens, UniProt P50391) | Criterion not met |
| CCNC(=O)c1cccc(-c2cnc(N[C@@H]3CCCC[C@H]3N[C@H]3CCCN(c4ccc(C(F)(F)F)cc4)C3)o2)c1 [Example 124] | human Y4 receptor (Homo sapiens, UniProt P50391) | Criterion met |

----------
Below is a list of entries, each paired with its recorded EC50 value.
- assay target: human Y4 receptor (Homo sapiens)
- Construct: expressed in transfected cells
- assay name: NPY4 cAMP HTRF Agonist Assay (inhibitory cAMP assay, Gi activation by Y4 agonism)
- Type: cell-based
- details: TABLE 5, R2 is Pyridinyl-CF3; read-out: hY4 CAMP EC50
test readout: EC50

| molecule | assay target | reported measurement |
| --- | --- | --- |
| C[C@]1(N[C@@H]2CCCC[C@H]2Nc2ncc(-c3cccc(C(N)=O)c3)o2)CCCN(c2ccc(C(F)(F)F)cn2)C1 [Example 329] | human Y4 receptor (Homo sapiens) | 1 nM |
| FC(F)(F)Oc1ccc(-c2cnc(N[C@@H]3CCCC[C@H]3N[C@H]3C[C@@H]4C[C@H]3N(c3ccc(C(F)(F)F)cn3)C4)o2)cc1 [Example 338] | human Y4 receptor (Homo sapiens) | 226 nM |
| NC(=O)c1cccc(-c2cnc(N[C@@H]3CCCC[C@H]3N[C@H]3CCCN(c4ccc(C(F)(F)F)nc4)C3)o2)c1 [Example 320] | human Y4 receptor (Homo sapiens) | 1 nM |

Hello, the source for this data is patent US8815909B2, in case you need it.
